System: Pseudomonas aeruginosa
EXPERIMENT_NOTES: Antibacterial activity against Pseudomonas aeruginosa NRZ 08418 assessed as bacterial growth inhibition by broth microdilution assay
Format: functional
Positions of bridges follow the written chain, without caps; N, C: chain ends. Non-standard residues stand in square brackets, D forms with d. Residues, ends and D or L forms follow the SMILES beside them. *: point of attachment. X1 = CC[C@H](C)CCCCC(=O)*; Dab = NCC[C@H](N)C(=O)O
Listed here are compounds together with their documented MIC.
Please reply with the bare figure in µg/mL and do not write the unit itself.

Study these solved cases before continuing.
Inquiry: Using the record for CC[C@H](C)CCCCC(=O)N[C@@H](CCN)C(=O)N[C@H](C(=O)N[C@@H](CCN)C(=O)N[C@H]1CCNC(=O)[C@H]([C@@H](C)O)NC(=O)[C@H](CCN)NC(=O)[C@H](CCN)NC(=O)[C@H](CC(C)C)NC(=O)[C@@H](Cc2ccccc2)NC(=O)[C@H](CCN)NC1=O)[C@@H](C)O (X1-[Dab]T[Dab][Dab][Dab][dF]L[Dab][Dab]T; lactam 4-C) , state its measured MIC.
Reply text: 1

Inquiry: Using the record for CC(C)C[C@@H]1NC(=O)[C@@H](Cc2ccccc2)NC(=O)[C@H](CCN)NC(=O)[C@@H](NC(=O)[C@H](CN)NC(=O)[C@@H](NC(=O)[C@H](N)CSSCCC2CCCCC2)[C@@H](C)O)CCNC(=O)[C@H]([C@@H](C)O)NC(=O)[C@H](CCN)NC(=O)[C@H](CCN)NC1=O , state its measured MIC.
Reply text: 2

# ---- query compound ----
Inquiry: Using the record for CC(C)C[C@@H]1NC(=O)[C@@H](Cc2ccccc2)NC(=O)[C@H](CCN)NC(=O)[C@@H](NC(=O)[C@@H](CN)NC(=O)[C@@H](NC(=O)[C@H](N)CSSCCC2CCCCC2)[C@@H](C)O)CCNC(=O)[C@H]([C@@H](C)O)NC(=O)[C@H](CCN)NC(=O)[C@H](CCN)NC1=O , state its measured MIC.
Reply text: 2

====

Listed here are compounds together with their documented MIC.
Tested on: Escherichia coli
EXPERIMENT_NOTES: Antibacterial activity against multidrug-resistant Escherichia coli NCTC 13846 assessed as bacterial growth inhibition by broth microdilution assay
Format: functional
Please reply with the bare figure in µg/mL and do not write the unit itself.

Inquiry: State MIC (Escherichia coli) of CC(C)C[C@@H]1NC(=O)[C@@H](Cc2ccccc2)NC(=O)[C@H](CCN)NC(=O)[C@@H](NC(=O)[C@@H](CCN)NC(=O)[C@@H](NC(=O)[C@H](N)CSSCc2cccc(Cl)c2)[C@@H](C)O)CCNC(=O)[C@H]([C@@H](C)O)NC(=O)[C@H](CCN)NC(=O)[C@H](CCN)NC1=O .
Reply text: 4

Inquiry: State MIC (Escherichia coli) of CC(C)C[C@@H]1NC(=O)[C@@H](Cc2ccccc2)NC(=O)[C@H](CCN)NC(=O)[C@@H](NC(=O)[C@H](CCN)NC(=O)[C@@H](NC(=O)[C@H](N)CSSCCC2CCCCC2)[C@@H](C)O)CCNC(=O)[C@H]([C@@H](C)O)NC(=O)[C@H](CCN)NC(=O)[C@H](CCN)NC1=O .
Reply text: 8

Inquiry: State MIC (Escherichia coli) of CC(C)CCSSC[C@@H](N)C(=O)N[C@H](C(=O)N[C@H](CCN)C(=O)N[C@H]1CCNC(=O)[C@H]([C@@H](C)O)NC(=O)[C@H](CCN)NC(=O)[C@H](CCN)NC(=O)[C@H](CC(C)C)NC(=O)[C@@H](Cc2ccccc2)NC(=O)[C@H](CCN)NC1=O)[C@@H](C)O .
Reply text: 8

Inquiry: State MIC (Escherichia coli) of CC(C)C[C@@H]1NC(=O)[C@@H](Cc2ccccc2)NC(=O)[C@H](CCN)NC(=O)[C@@H](NC(=O)CNC(=O)[C@@H](NC(=O)[C@H](N)CSSCCC2CCCCC2)[C@@H](C)O)CCNC(=O)[C@H]([C@@H](C)O)NC(=O)[C@H](CCN)NC(=O)[C@H](CCN)NC1=O .
Reply text: 8

Inquiry: State MIC (Escherichia coli) of CC(C)C[C@@H]1NC(=O)[C@@H](Cc2ccccc2)NC(=O)[C@H](CCN)NC(=O)[C@@H](NC(=O)[C@@H](CN)NC(=O)[C@@H](NC(=O)[C@H](N)CSSCc2cccc(Cl)c2)[C@@H](C)O)CCNC(=O)[C@H]([C@@H](C)O)NC(=O)[C@H](CCN)NC(=O)[C@H](CCN)NC1=O .
Reply text: 16

Inquiry: State MIC (Escherichia coli) of CC(C)CCSSC[C@@H](N)C(=O)N[C@H](C(=O)N[C@@H](CN)C(=O)N[C@H]1CCNC(=O)[C@H]([C@@H](C)O)NC(=O)[C@H](CCN)NC(=O)[C@H](CCN)NC(=O)[C@H](CC(C)C)NC(=O)[C@@H](Cc2ccccc2)NC(=O)[C@H](CCN)NC1=O)[C@@H](C)O .
Reply text: 4

# ---- query compound ----
Inquiry: State MIC (Escherichia coli) of CC(C)CCSSC[C@@H](N)C(=O)N[C@H](C(=O)N[C@H](CO)C(=O)N[C@H]1CCNC(=O)[C@H]([C@@H](C)O)NC(=O)[C@H](CCN)NC(=O)[C@H](CCN)NC(=O)[C@H](CC(C)C)NC(=O)[C@@H](Cc2ccccc2)NC(=O)[C@H](CCN)NC1=O)[C@@H](C)O .
Reply text: 16

====

Listed here are molecules together with their documented MIC.
Tested on: Escherichia coli
EXPERIMENT_NOTES: Antibacterial activity against multidrug-resistant Escherichia coli NCTC 13846 assessed as bacterial growth inhibition by broth microdilution assay
Type: functional
Please reply with the bare figure in µg/mL and do not write the unit itself.

Study these solved cases before continuing.
Inquiry: Using the record for CC(C)CCSSC[C@@H](N)C(=O)N[C@H](C(=O)N[C@@H](CCN)C(=O)N[C@H]1CCNC(=O)[C@H]([C@@H](C)O)NC(=O)[C@H](CCN)NC(=O)[C@H](CCN)NC(=O)[C@H](CC(C)C)NC(=O)[C@@H](Cc2ccccc2)NC(=O)[C@H](CCN)NC1=O)[C@@H](C)O , state its measured MIC.
Reply text: 8

Inquiry: Using the record for CC(C)C[C@@H]1NC(=O)[C@@H](Cc2ccccc2)NC(=O)[C@H](CCN)NC(=O)[C@@H](NC(=O)[C@H](CN)NC(=O)[C@@H](NC(=O)[C@H](N)CSSCCC2CCCCC2)[C@@H](C)O)CCNC(=O)[C@H]([C@@H](C)O)NC(=O)[C@H](CCN)NC(=O)[C@H](CCN)NC1=O , state its measured MIC.
Reply text: 2

Inquiry: Using the record for CC(C)C[C@@H]1NC(=O)[C@@H](Cc2ccccc2)NC(=O)[C@H](CCN)NC(=O)[C@@H](NC(=O)[C@@H](CN)NC(=O)[C@@H](NC(=O)[C@H](N)CSSCCC2CCCCC2)[C@@H](C)O)CCNC(=O)[C@H]([C@@H](C)O)NC(=O)[C@H](CCN)NC(=O)[C@H](CCN)NC1=O , state its measured MIC.
Reply text: 4

Inquiry: Using the record for CC(C)C[C@@H]1NC(=O)[C@@H](Cc2ccccc2)NC(=O)[C@H](CCN)NC(=O)[C@@H](NC(=O)[C@@H](CO)NC(=O)[C@@H](NC(=O)[C@H](N)CSSCCC2CCCCC2)[C@@H](C)O)CCNC(=O)[C@H]([C@@H](C)O)NC(=O)[C@H](CCN)NC(=O)[C@H](CCN)NC1=O , state its measured MIC.
Reply text: 8

Inquiry: Using the record for CC(C)C[C@@H]1NC(=O)[C@@H](Cc2ccccc2)NC(=O)[C@H](CCN)NC(=O)[C@@H](NC(=O)[C@@H](CO)NC(=O)[C@@H](NC(=O)[C@H](N)CSSCc2cccc(Cl)c2)[C@@H](C)O)CCNC(=O)[C@H]([C@@H](C)O)NC(=O)[C@H](CCN)NC(=O)[C@H](CCN)NC1=O , state its measured MIC.
Reply text: 8

More entries:
Inquiry: Using the record for CC(C)C[C@@H]1NC(=O)[C@@H](Cc2ccccc2)NC(=O)[C@H](CCN)NC(=O)[C@@H](NC(=O)[C@H](CN)NC(=O)[C@@H](NC(=O)[C@H](N)CSSCc2cccc(Cl)c2)[C@@H](C)O)CCNC(=O)[C@H]([C@@H](C)O)NC(=O)[C@H](CCN)NC(=O)[C@H](CCN)NC1=O , state its measured MIC.
Reply text: 2

Inquiry: Using the record for CC(C)C[C@@H]1NC(=O)[C@@H](Cc2ccccc2)NC(=O)[C@H](CCN)NC(=O)[C@@H](NC(=O)[C@H](CCN)NC(=O)[C@@H](NC(=O)[C@H](N)CSSCc2cccc(Cl)c2)[C@@H](C)O)CCNC(=O)[C@H]([C@@H](C)O)NC(=O)[C@H](CCN)NC(=O)[C@H](CCN)NC1=O , state its measured MIC.
Reply text: 4
